# SYSTEM UNDER TEST: T1, GR (Homo sapiens, UniProt P04150)
# T1 construct: host or cells: HEK293 (HEK293/GRLuc; HEK293/GRLuc/MSR1 additionally transduced with human MSR1)
# T1 sequence (P04150 524-758 limits assumed): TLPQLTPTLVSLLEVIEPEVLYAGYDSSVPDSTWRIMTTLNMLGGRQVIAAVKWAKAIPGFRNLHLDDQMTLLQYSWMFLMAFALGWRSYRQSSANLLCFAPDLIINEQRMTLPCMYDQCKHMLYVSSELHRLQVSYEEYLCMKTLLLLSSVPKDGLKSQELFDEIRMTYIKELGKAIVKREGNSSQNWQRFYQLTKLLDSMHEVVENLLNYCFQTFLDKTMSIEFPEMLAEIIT
# ASSAY METHOD TEXT: GR luciferase reporter assay in HEK293/GRLuc cells
# Type: cell-based
# RUN CONDITIONS: Table 8, ncADCs, highest RLU / RLU of untreated wells
REPORTED ENDPOINT: S/N

MOLECULE	RECORDED MEASUREMENT
H1H21234N-N297Q-L5-PIII-1 (antibody, V domains shown, heavy-chain constant region (not part of this entry): N297Q (EU); linker-payload L5-PIII-1 (DIBAC-suc-SGGG-PIII-1) clicked onto azido-PEG3-amine on glutamines; DAR 4) VH: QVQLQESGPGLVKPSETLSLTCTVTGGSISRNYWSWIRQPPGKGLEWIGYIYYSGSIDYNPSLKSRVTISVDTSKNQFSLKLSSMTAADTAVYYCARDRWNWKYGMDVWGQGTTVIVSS VL: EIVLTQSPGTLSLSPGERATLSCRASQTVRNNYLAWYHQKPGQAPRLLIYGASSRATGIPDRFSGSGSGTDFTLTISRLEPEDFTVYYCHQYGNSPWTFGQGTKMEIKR	13.2
H1H21234N-N297Q-L1-PIII-1 (antibody, V domains shown, heavy-chain constant region (not part of this entry): N297Q (EU); linker-payload L1-PIII-1 (DIBAC-suc-PEG4-vcPAB-PIII-1, payload 6,11-2F-budesonide III) clicked onto azido-PEG3-amine on glutamines; DAR 4) VH: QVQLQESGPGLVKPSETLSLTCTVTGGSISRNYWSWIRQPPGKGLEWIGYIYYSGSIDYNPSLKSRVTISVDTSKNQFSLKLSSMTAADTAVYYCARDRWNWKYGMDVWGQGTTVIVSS VL: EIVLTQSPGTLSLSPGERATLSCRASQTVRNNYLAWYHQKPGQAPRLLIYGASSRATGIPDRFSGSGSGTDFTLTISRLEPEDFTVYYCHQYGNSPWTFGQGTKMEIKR	16.4
H1H21234N-N297Q-L1-PII-1 (antibody, V domains shown, heavy-chain constant region (not part of this entry): N297Q (EU); linker-payload L1-PII-1 (DIBAC-suc-PEG4-vcPAB-PII-1, payload budesonide) clicked onto azido-PEG3-amine on glutamines; DAR 4) VH: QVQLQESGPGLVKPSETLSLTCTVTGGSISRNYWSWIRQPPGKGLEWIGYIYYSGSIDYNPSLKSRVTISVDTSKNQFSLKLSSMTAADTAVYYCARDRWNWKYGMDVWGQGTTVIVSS VL: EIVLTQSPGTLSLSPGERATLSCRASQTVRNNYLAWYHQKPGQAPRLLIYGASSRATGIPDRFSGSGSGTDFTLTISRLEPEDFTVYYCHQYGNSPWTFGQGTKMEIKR	5.4
H1H21234N-N297Q-L2-PIII-1 (antibody, V domains shown, heavy-chain constant region (not part of this entry): N297Q (EU); linker-payload L2-PIII-1 (DIBAC-suc-PEG4-Glu-vcPAB-PIII-1) clicked onto azido-PEG3-amine on glutamines; DAR 4) VH: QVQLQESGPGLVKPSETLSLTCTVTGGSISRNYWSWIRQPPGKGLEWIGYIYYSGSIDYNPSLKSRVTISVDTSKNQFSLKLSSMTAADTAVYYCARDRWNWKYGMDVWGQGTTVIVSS VL: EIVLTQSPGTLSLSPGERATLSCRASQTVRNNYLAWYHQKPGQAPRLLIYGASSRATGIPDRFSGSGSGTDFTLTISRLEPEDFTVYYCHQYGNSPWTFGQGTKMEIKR	6.0
H1H21234N-N297Q-L3-PIII-1 (antibody, V domains shown, heavy-chain constant region (not part of this entry): N297Q (EU); linker-payload L3-PIII-1 (DIBAC-suc-PEG4-GGF-PIII-1) clicked onto azido-PEG3-amine on glutamines; DAR 4) VH: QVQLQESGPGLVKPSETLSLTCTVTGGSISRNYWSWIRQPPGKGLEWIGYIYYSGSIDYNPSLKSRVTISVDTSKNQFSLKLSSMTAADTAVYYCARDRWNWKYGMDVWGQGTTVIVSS VL: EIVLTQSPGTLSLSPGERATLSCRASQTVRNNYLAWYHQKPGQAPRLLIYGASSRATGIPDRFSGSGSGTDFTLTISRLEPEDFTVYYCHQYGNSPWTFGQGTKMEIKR	17.5
H1H21234N-N297Q-L4-PIII-1 (antibody, V domains shown, heavy-chain constant region (not part of this entry): N297Q (EU); linker-payload L4-PIII-1 (DIBAC-suc-GGF-PIII-1) clicked onto azido-PEG3-amine on glutamines; DAR 4) VH: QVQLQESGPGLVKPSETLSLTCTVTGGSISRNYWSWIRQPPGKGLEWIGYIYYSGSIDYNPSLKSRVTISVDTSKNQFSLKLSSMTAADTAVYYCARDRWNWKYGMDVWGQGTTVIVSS VL: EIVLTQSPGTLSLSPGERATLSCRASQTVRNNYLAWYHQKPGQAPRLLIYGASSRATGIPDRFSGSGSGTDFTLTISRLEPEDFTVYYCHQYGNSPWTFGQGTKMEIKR	25.5
